These entries and their values trace back to ChEMBL document CHEMBL1201862.

# test-target: Nucleotide-binding oligomerization domain-containing protein 2 (Homo sapiens, UniProt Q9HC29)
# Sequence (Q9HC29 whole entry, the tested form may be a part): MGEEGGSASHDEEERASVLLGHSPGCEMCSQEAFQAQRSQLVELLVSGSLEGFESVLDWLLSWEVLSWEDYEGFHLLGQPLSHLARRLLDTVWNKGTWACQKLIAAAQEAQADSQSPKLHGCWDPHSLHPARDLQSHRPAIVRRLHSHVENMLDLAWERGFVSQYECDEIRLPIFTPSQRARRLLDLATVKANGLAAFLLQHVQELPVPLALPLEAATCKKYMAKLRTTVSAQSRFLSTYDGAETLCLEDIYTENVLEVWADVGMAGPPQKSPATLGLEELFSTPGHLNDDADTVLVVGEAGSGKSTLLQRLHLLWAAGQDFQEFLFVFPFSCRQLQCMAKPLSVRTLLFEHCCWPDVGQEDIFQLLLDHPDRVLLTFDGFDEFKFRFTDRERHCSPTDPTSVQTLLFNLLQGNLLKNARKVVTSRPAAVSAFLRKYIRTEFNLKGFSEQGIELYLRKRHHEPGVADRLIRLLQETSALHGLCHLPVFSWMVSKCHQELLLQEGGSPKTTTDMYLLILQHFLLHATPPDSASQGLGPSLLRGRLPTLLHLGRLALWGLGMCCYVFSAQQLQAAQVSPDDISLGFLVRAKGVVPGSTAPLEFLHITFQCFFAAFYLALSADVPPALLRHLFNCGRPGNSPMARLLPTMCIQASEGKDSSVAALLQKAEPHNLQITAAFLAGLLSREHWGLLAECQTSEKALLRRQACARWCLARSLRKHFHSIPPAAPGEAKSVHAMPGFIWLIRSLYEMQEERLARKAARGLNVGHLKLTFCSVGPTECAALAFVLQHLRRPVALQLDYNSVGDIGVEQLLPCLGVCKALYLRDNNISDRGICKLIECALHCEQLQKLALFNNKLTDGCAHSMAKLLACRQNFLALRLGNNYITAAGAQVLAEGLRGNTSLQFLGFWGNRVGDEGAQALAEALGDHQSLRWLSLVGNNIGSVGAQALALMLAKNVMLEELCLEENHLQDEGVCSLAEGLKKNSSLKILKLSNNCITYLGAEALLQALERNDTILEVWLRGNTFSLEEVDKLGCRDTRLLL
# experiment: inhibition of NOD2-driven NF-kB reporter – cell-based, luminescence, uHTS, HEK293 (AID 1566)
# Type: functional
Activity calls are given as the source filed them.
Mark one answer only. Choices: YES (active), NO (inactive)

These solved cases illustrate the format of a correct answer.
- molecule-smiles: "COc1cc(NC(=O)c2cc3ccccc3cc2O)c(OC)cc1Cl"
  classification: "YES"
- molecule-smiles: "O=C(O)CCSc1ncnc2sc(-c3ccccc3)cc12"
  classification: "YES"
- molecule-smiles: "O=C(Nc1ccc2nn(-c3ccccc3)nc2c1)c1ccc2c(c1)OCCO2"
  classification: "NO"

Ask: What is the recorded call for this molecule in the test? C=CCn1c(O)c(N=NC(=S)Nc2cccc(C)c2)c2ccccc21
Reply: YES

* * *

# test-target: Replicative DNA helicase DnaB (Mycobacterium tuberculosis)
# Sequence (P9WMR3 whole entry): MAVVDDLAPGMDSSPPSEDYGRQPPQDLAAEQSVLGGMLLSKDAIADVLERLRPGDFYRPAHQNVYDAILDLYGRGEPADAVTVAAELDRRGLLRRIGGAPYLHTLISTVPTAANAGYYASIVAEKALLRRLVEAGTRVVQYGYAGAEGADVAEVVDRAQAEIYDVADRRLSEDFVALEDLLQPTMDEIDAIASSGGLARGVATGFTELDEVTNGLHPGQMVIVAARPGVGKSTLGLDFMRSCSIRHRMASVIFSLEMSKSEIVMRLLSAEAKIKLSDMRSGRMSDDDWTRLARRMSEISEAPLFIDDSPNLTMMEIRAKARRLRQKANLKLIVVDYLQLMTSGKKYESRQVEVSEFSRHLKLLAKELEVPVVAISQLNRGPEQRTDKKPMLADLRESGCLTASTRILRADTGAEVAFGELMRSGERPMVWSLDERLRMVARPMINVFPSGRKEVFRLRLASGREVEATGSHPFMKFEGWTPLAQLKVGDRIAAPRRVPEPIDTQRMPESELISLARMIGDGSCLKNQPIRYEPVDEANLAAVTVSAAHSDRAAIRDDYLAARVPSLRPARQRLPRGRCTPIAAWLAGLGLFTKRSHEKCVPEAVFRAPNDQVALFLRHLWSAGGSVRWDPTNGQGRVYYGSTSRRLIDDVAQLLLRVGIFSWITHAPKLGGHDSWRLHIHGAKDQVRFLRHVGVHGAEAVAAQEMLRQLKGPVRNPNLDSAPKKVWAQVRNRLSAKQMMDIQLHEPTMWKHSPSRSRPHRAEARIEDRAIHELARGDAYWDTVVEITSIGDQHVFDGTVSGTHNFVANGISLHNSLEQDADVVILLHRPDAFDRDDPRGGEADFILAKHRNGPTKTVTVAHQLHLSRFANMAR
# experiment: DnaB intein splicing inhibitors, dose response, biochemical, cell-free fluorescence (AID 449749)
# Type: functional
Calls of active or inactive are those of the source.
Mark one answer only. Choices: TRUE for active, FALSE for inactive

- compound: "O=C(Cc1ccccc1Cl)NC1(O)C(=O)c2ccccc2C1=O"
  classification: "TRUE"
- compound: "CC1=NN(c2ccccc2)C(=O)C1=C(C)C"
  classification: "TRUE"
- compound: "Cc1nc(COC(=O)c2cc(O)c3ccccc3c2O)cs1"
  classification: "TRUE"
- compound: "O=C(c1ccc(N2CCN(CCO)CC2)nc1)N1CCOCC1"
  classification: "FALSE"
- compound: "CNC(=O)c1nnsc1[S+]([O-])c1ccc(Cl)cc1 (stereo unspecified)"
  classification: "TRUE"

Ask: What is the recorded call for this compound in the test? CCCc1n[nH]c(O)c1C(c1ccc(Cl)cc1)C(C#N)C#N (stereo unspecified)
Reply: TRUE
